# measured.target: M. truncatula GSII-1b (Medicago truncatula, UniProt O04999)
# Sequence (O04999 1-356): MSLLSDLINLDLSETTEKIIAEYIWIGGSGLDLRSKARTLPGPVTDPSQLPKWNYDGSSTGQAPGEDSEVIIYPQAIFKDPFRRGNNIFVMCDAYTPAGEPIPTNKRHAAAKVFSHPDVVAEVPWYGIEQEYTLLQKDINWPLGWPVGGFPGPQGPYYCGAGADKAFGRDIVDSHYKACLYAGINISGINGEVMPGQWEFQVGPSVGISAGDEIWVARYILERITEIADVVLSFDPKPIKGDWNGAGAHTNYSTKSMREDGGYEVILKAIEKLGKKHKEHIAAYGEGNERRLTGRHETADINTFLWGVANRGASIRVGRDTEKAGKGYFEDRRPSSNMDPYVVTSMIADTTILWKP
# experiment.summary: GS synthetase reaction inhibition, GSII-1b
# Assay type: biochemical
# Procedure: The activities of the His-tagged GS isoenzymes (GSII-1a, GSII-1b, GSII-2a and GSII-2b) were determined by quantifying the γ-glutamyl hydroxamate produced by the synthetase reaction (GSs) as described previously (Cullimore & Sims, 1981[▶]; Cullimore et al., 1982[▶]). […] GS specific activity was determined as the amount of γ-glutamyl hydroxamate produced per minute per milligram of purified protein (µmol min^−1 mg^−1). […]

>  <smi>
CP(=O)(O)CC[C@H](N)C(=O)O

>  <unit.abbrev>
µM

>  <IC50>
670

$$$$

###

# measured.target: M. truncatula GSII-1b (Medicago truncatula, UniProt O04999)
# experiment.summary: GS synthetase reaction inhibition, GSII-1b
# Assay type: biochemical
# particulars: MSO titration using 20 mM glutamate, His-tagged enzyme; read-out: IC50 (concentration of inhibitor reducing the GS activity by 50%)
endpoint: IC50 (µM)

>  <compound>
CS(=N)(=O)CC[C@H](N)C(=O)O (stereo partly shown)

>  <endpoint>
IC50

>  <result>
2200

$$$$

###

# measured.target: M. truncatula GSII-2b (Medicago truncatula, UniProt E1ANG4)
# Sequence (E1ANG4 50-428): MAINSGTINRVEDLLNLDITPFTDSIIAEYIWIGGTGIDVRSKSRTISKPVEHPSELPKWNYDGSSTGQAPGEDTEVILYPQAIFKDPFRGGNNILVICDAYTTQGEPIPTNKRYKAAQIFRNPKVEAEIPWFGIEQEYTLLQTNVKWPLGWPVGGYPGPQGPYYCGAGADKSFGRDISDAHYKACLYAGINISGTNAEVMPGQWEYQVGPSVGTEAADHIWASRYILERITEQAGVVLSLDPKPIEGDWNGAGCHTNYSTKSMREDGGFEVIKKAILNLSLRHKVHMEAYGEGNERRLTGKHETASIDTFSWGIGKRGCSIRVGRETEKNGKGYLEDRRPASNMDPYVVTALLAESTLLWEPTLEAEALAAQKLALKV
# experiment.summary: GS synthetase reaction inhibition, GSII-2b

>  <smi>
CP(=O)(O)CC[C@H](N)C(=O)O

>  <IC50 (µM)>
720

$$$$
